B1: library; a variant is named by its letters at N, in order (parent)
chain: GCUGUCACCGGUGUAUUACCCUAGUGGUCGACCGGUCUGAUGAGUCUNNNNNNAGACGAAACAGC

- Variants of: B1
- Method summary: normalized RNA/DNA level with ligand (relative to sTRSVctl = 100) (log10 (% of sTRSVctl)); ligand: hypoxanthine (xanthine aptamer); higher = less ribozyme self-cleavage, higher mRNA level
- Particulars: ligand concentration (+) RNA-Seq: 5 mM, HEK293T, reporter: mCherry (pCS4076), ligand present: yes
Observable: normalized RNA/DNA level with ligand (log10)
Just the number, please, no unit after it.

# Sequence chain, Recorded result
records = [
    ("GCUGUCACCGGUGUAUUACCCUAGUGGUCGACCGGUCUGAUGAGUCUACUGACAGACGAAACAGC [ACUGAC]", 1.95),
    ("GCUGUCACCGGUGUAUUACCCUAGUGGUCGACCGGUCUGAUGAGUCUCUCCAUAGACGAAACAGC [CUCCAU]", 1.96),
    ("GCUGUCACCGGUGUAUUACCCUAGUGGUCGACCGGUCUGAUGAGUCUAUCAUAAGACGAAACAGC [AUCAUA]", 1.92),
    ("GCUGUCACCGGUGUAUUACCCUAGUGGUCGACCGGUCUGAUGAGUCUGCCCACAGACGAAACAGC [GCCCAC]", 1.92),
    ("GCUGUCACCGGUGUAUUACCCUAGUGGUCGACCGGUCUGAUGAGUCUGGCGAGAGACGAAACAGC [GGCGAG]", 1.82),
]

Param item = GCUGUCACCGGUGUAUUACCCUAGUGGUCGACCGGUCUGAUGAGUCUACUGUCAGACGAAACAGC [ACUGUC] ; retrieve measured normalized RNA/DNA level with ligand (log10). 1.99

# query: normalized RNA/DNA level with ligand (log10) of entry GCUGUCACCGGUGUAUUACCCUAGUGGUCGACCGGUCUGAUGAGUCUAACGACAGACGAAACAGC [AACGAC] 1.94

So what's the measured normalized RNA/DNA level with ligand (log10) for this one? GCUGUCACCGGUGUAUUACCCUAGUGGUCGACCGGUCUGAUGAGUCUCUGGUGAGACGAAACAGC [CUGGUG] 1.94

Given the variant GCUGUCACCGGUGUAUUACCCUAGUGGUCGACCGGUCUGAUGAGUCUACGCUCAGACGAAACAGC [ACGCUC] , what is its reported normalized RNA/DNA level with ligand (log10)? 2.02
